// kcat lookup, one value per entry
Experiment: Activity of beta-lactamase FUS1 assessed as compound hydrolysis by spectrophotometry

A selection of reference data follows.
- Compound: "CO/N=C(\\C(=O)N[C@@H]1C(=O)N2C(C(=O)O)=C(COC(N)=O)CS[C@H]12)c1ccco1"
  kcat: "> 1.8 s⁻¹"
- Compound: "Cc1onc(-c2ccccc2)c1C(=O)N[C@@H]1C(=O)N2[C@@H]1SC(C)(C)[C@@H]2C(=O)O [OXACILLIN]"
  kcat: "780 s⁻¹"
- Compound: "CC1(C)S[C@@H]2[C@H](NC(=O)Cc3ccccc3)C(=O)N2[C@H]1C(=O)O [PENICILLIN G]"
  kcat: "830 s⁻¹"
- Compound: "CC1(C)S[C@@H]2[C@H](NC(=O)[C@H](N)c3ccccc3)C(=O)N2[C@H]1C(=O)O"
  kcat: "45 s⁻¹"

Shifting focus to the compound that follows.
Tell me the measured kcat of CC(=O)OCC1=C(C(=O)O)N2C(=O)[C@@H](NC(=O)Cc3cccs3)[C@H]2SC1 , please.
4.1 s⁻¹

---

Assay: Ratio of Kcat to Km for beta-lactamase FUS1 assessed as compound hydrolysis by spectrophotometry
Below: a set of entries, each annotated with reported kcat/Km.
Please respond with the number in ×10⁵ /M/s and leave the unit unwritten.

Sample answers from the record:
- Chemical Structure: "CC(=O)OCC1=C(C(=O)O)N2C(=O)[C@@H](NC(=O)Cc3cccs3)[C@H]2SC1"
  Test Result: 8.7
- Chemical Structure: "CC1(C)S[C@@H]2[C@H](NC(=O)[C@H](N)c3ccccc3)C(=O)N2[C@H]1C(=O)O"
  Test Result: 5.7

# get_value(readout='kcat/Km', item= CO/N=C(\C(=O)N[C@@H]1C(=O)N2C(C(=O)O)=C(COC(N)=O)CS[C@H]12)c1ccco1 )
4.5

---

Tested on: Escherichia coli
Assay: Antimicrobial activity against Escherichia coli JM83 without producing beta-lactamase OXA-63 after 3 days by Etest
Format: functional
Criterion: MIC strictly less than 0.5 mg/L. Met: rule met. Not met: rule not met.

- Compound: "CO/N=C(\\C(=O)N[C@@H]1C(=O)N2C(C(=O)O)=C(COC(C)=O)CS[C@H]12)c1csc(N)n1 [CEFOTAXIME]"
  Assigned Category: "rule met"
- Compound: "CCN1CCN(C(=O)N[C@@H](C(=O)N[C@@H]2C(=O)N3[C@@H]2SC(C)(C)[C@@H]3C(=O)O)c2ccccc2)C(=O)C1=O [PIPERACILLIN]"
  Assigned Category: "rule not met"

Determine if CC1(C)S[C@@H]2[C@H](NC(=O)Cc3ccccc3)C(=O)N2[C@H]1C(=O)O [PENICILLIN G] shows MIC strictly lower than 0.5 mg/L.
rule not met

Lab log: compare recorded MIC with 0.5 mg/L; is it strictly lower for C[C@@H](O)[C@H]1C(=O)N2C(C(=O)O)=C(S[C@@H]3CN[C@H](C(=O)N(C)C)C3)[C@H](C)[C@H]12 [MEROPENEM] ?
rule met

Consider the compound C[C@H]1[C@H](NC(=O)/C(=N\OC(C)(C)C(=O)O)c2csc(N)n2)C(=O)N1S(=O)(=O)O [AZTREONAM] . Is its MIC strictly less than 0.5 mg/L?
rule met

Please check: MIC for CC1(C)S[C@@H]2[C@H](NC(=O)[C@H](N)c3ccc(O)cc3)C(=O)N2[C@H]1C(=O)O [AMOXICILLIN] , strictly under 0.5 mg/L or not?
rule not met

---

Test system: Brachyspira pilosicoli
Assay: Antimicrobial activity against Brachyspira pilosicoli 80.10 without producing beta-lactamase OXA-63 by disc diffusion method
Format: functional
Hi! Could you tag entries with MIC below 0.1 µg/mL as Met, and those at or above as Not met? Much appreciated.

Solved entries:
- Compound: "CO/N=C(\\C(=O)N[C@@H]1C(=O)N2C(C(=O)O)=C(COC(C)=O)CS[C@H]12)c1csc(N)n1 [CEFOTAXIME]"
  System Tested: "Brachyspira pilosicoli"
  Assigned Category: "Met"
- Compound: "CC1(C)S[C@@H]2[C@H](NC(=O)Cc3ccccc3)C(=O)N2[C@H]1C(=O)O [PENICILLIN G]"
  System Tested: "Brachyspira pilosicoli"
  Assigned Category: "Met"
- Compound: "C[C@H]1[C@H](NC(=O)/C(=N\\OC(C)(C)C(=O)O)c2csc(N)n2)C(=O)N1S(=O)(=O)O [AZTREONAM]"
  System Tested: "Brachyspira pilosicoli"
  Assigned Category: "Not met"
- Compound: "C[C@@H](O)[C@H]1C(=O)N2C(C(=O)O)=C(S[C@@H]3CN[C@H](C(=O)N(C)C)C3)[C@H](C)[C@H]12 [MEROPENEM]"
  System Tested: "Brachyspira pilosicoli"
  Assigned Category: "Met"
- Compound: "CC1(C)S[C@@H]2[C@H](NC(=O)[C@H](N)c3ccc(O)cc3)C(=O)N2[C@H]1C(=O)O [AMOXICILLIN]"
  System Tested: "Brachyspira pilosicoli"
  Assigned Category: "Met"
- Compound: "Cc1onc(-c2ccccc2)c1C(=O)N[C@@H]1C(=O)N2[C@@H]1SC(C)(C)[C@@H]2C(=O)O [OXACILLIN]"
  System Tested: "Brachyspira pilosicoli"
  Assigned Category: "Not met"
- Compound: "CCN1CCN(C(=O)N[C@@H](C(=O)N[C@@H]2C(=O)N3[C@@H]2SC(C)(C)[C@@H]3C(=O)O)c2ccccc2)C(=O)C1=O [PIPERACILLIN]"
  System Tested: "Brachyspira pilosicoli"
  Assigned Category: "Met"

Okay, next one:
Item CC(C)(O/N=C(\C(=O)N[C@@H]1C(=O)N2C(C(=O)[O-])=C(C[n+]3ccccc3)CS[C@H]12)c1csc(N)n1)C(=O)O [CEFTAZIDIME] : MIC beneath 0.1 µg/mL, strictly?
Not met

---

Molecular target: Class D beta-lactamase (Brachyspira pilosicoli, UniProt Q50H31)
Sequence (Q50H31 whole entry): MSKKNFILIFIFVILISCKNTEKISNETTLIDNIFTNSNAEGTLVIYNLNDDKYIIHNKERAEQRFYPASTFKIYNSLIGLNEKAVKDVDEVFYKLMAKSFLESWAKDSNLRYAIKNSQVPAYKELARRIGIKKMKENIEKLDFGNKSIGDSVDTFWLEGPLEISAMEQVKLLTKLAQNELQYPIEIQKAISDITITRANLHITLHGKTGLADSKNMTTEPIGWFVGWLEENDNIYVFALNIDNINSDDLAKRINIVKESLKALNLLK
Assay: Inhibition of Brachyspira pilosicoli beta-lactamase OXA-63 expressed in Escherichia coli BL21 (DE3) assessed as reduction in nitrocefin hydrolysis by spectrophotometry relative to oxacillin
Endpoint Label: IC50 (µM)
# number only, unit µM dropped from output

- Chemical Structure: "C[C@]1(Cn2ccnn2)[C@H](C(=O)O)N2C(=O)C[C@H]2S1(=O)=O"
  IC50 / µM: 0.16
- Chemical Structure: "CC1(C)[C@H](C(=O)O)N2C(=O)C[C@H]2S1(=O)=O"
  IC50 / µM: 12

Please look up its IC50: O=C(O)[C@H]1/C(=C/CO)O[C@@H]2CC(=O)N21
2

---

Assay: Activity of beta-lactamase FUS1 assessed as compound hydrolysis by spectrophotometry
Endpoint Label: Km (µM)
Quick note: give the figure in µM, leave out the unit.

Use the examples below as a reference point.
- Chemical Structure: "CC1(C)S[C@@H]2[C@H](NC(=O)[C@H](N)c3ccccc3)C(=O)N2[C@H]1C(=O)O"
  Units Of Measure: "µM"
  Test Result: 76
- Chemical Structure: "CC(=O)OCC1=C(C(=O)O)N2C(=O)[C@@H](NC(=O)Cc3cccs3)[C@H]2SC1"
  Units Of Measure: "µM"
  Test Result: 47
- Chemical Structure: "CC1(C)S[C@@H]2[C@H](NC(=O)Cc3ccccc3)C(=O)N2[C@H]1C(=O)O"
  Units Of Measure: "µM"
  Test Result: 10

// below: Km requested for another molecule
// Km lookup, key: Cc1onc(-c2ccccc2)c1C(=O)N[C@@H]1C(=O)N2[C@@H]1SC(C)(C)[C@@H]2C(=O)O
36

---

Let's look at some compounds and their measured MIC.
Tested on: Brachyspira pilosicoli
Assay: Antimicrobial activity against beta-lactamase OXA-63 producing Brachyspira pilosicoli isolate BM4442 isolated from feces of patient with diarrhea by disc diffusion method
Format: functional
Enter your answer as a number in µg/mL; do not include the unit.

Some compounds with recorded MIC:
- Compound: "CO/N=C(\\C(=O)N[C@@H]1C(=O)N2C(C(=O)O)=C(COC(C)=O)CS[C@H]12)c1csc(N)n1 [CEFOTAXIME]"
  Endpoint Label: "MIC"
  Test Result: 0.032
- Compound: "CC(C)(O/N=C(\\C(=O)N[C@@H]1C(=O)N2C(C(=O)[O-])=C(C[n+]3ccccc3)CS[C@H]12)c1csc(N)n1)C(=O)O [CEFTAZIDIME]"
  Endpoint Label: "MIC"
  Test Result: 4
- Compound: "CCN1CCN(C(=O)N[C@@H](C(=O)N[C@@H]2C(=O)N3[C@@H]2SC(C)(C)[C@@H]3C(=O)O)c2ccccc2)C(=O)C1=O [PIPERACILLIN]"
  Endpoint Label: "MIC"
  Test Result: 48
- Compound: "C[C@H]1[C@H](NC(=O)/C(=N\\OC(C)(C)C(=O)O)c2csc(N)n2)C(=O)N1S(=O)(=O)O [AZTREONAM]"
  Endpoint Label: "MIC"
  Test Result: 1
- Compound: "C[C@@H](O)[C@H]1C(=O)N2C(C(=O)O)=C(S[C@@H]3CN[C@H](C(=O)N(C)C)C3)[C@H](C)[C@H]12 [MEROPENEM]"
  Endpoint Label: "MIC"
  Test Result: 0.032

// query MIC value for entry CC1(C)S[C@@H]2[C@H](NC(=O)Cc3ccccc3)C(=O)N2[C@H]1C(=O)O [PENICILLIN G]
2

# get_value(readout='MIC', item= CC1(C)S[C@@H]2[C@H](NC(=O)[C@H](N)c3ccc(O)cc3)C(=O)N2[C@H]1C(=O)O [AMOXICILLIN] )
1.5
